- Tested on: human melanoma A375 cells
- measurement_description: Tumor Cell Proliferation Assay (ATP Lite), A375
- Format: cell-based
- setup_conditions: A-375, 96 h, 4 days
value_kind: IC50 (nM)

A. O=C(N[C@@H]1CCC[C@@H](O)[C@H]1O)c1ccncc1Nc1ccc(Br)cc1Cl (racemic)
B. O=C(N[C@H]1CCC[C@H](O)[C@@H]1O)c1ccncc1Nc1ccc(I)cc1F (racemic) [(3)]
Identify the entry with the smaller IC50: A or B . Write the label of whichever entry you select.
B

a. N[C@@H]1CCC[C@@H](OC(=O)c2c(F)cncc2Nc2ccc(I)cc2F)[C@H]1O (racemic)
b. O=C(N[C@@H]1CCC[C@@H](O)[C@H]1O)c1c(F)cncc1Nc1ccc(I)cc1F (racemic)
API: POST /compare with a and b ; response names the item with higher IC50. Write the label of whichever entry you select.
a
(a: 85.5 nM, b: 1 nM)

A. O=C(N[C@@H]1CCC[C@@H](O)[C@H]1O)c1cc(Cl)ncc1Nc1ccc(I)cc1F (racemic)
B. O=C(N[C@@H]1CCC[C@@H](O)[C@H]1O)c1ccncc1Nc1ccccc1F
C. O=C(N[C@H]1CCC[C@H](O)[C@@H]1O)c1ccncc1Nc1ccc(I)cc1F [(7)]
D. O=C(N[C@@H]1CCC[C@@H](O)[C@H]1O)c1ccncc1Nc1ccc(Br)cc1F (racemic)
Please order the records by their reported IC50, lowest number first. Please respond by ranking the labels in the order requested.
A, D, B, C

---

pIC50: −log10 of the molar value.
The next entries give measured pIC50 for UniProtKB Q02750.
Sequence (Q02750 whole entry): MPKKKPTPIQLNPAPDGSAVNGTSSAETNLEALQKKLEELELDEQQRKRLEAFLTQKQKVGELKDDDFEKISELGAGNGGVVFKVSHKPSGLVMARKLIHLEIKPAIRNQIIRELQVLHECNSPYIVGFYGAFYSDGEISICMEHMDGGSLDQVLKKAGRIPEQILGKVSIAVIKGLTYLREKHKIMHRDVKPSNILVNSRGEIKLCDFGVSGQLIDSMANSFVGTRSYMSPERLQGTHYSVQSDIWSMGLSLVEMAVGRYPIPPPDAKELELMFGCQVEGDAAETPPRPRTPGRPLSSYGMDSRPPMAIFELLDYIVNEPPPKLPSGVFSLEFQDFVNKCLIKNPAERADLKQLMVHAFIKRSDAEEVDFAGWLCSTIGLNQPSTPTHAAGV
value_kind: pIC50

I. O=C(N[C@@H]1CCC[C@@H](O)[C@H]1O)c1ccncc1Nc1ccc(Br)cc1Cl (racemic) [(6)]
II. O=C(N[C@H]1CCC[C@H](O)[C@@H]1O)c1ccncc1Nc1ccc(I)cc1F [(7)]
III. O=C(N[C@H]1CCC[C@H](O)[C@@H]1O)c1ccncc1Nc1ccc(I)cc1F (racemic) [(3)]
IV. O=C(N[C@@H]1CCC[C@@H](O)[C@H]1O)c1ccncc1Nc1ccccc1F [(10)]
In a descending ranking, list each entry from above by its pIC50, from the largest value down to the smallest. Please respond by ranking the labels in the order requested.
I, III, IV, II
(I: 7.42, III: 7.02, IV: 6.72, II: 5.57)

Value source: patent US8404725B2
